- System: Ruminococcus gnavus DSM 108212
- ASSAY_SUMMARY: growth (OD595) fold change vs plate DMSO controls (fold change (ratio)); higher = more growth
- PARTICULARS: incubation time: 27 h, anaerobic, 37 °C
Where a name gives a salt, the structure may show the parent alone.
MEASURED_PROPERTY: growth
Number only, no unit.

Entry Cc1cn([C@H]2C[C@H](N=[N+]=[N-])[C@@H](CO)O2)c(=O)[nH]c1=O [Zidovudine] (20 µM) — recorded growth = 1.45

Entry O=C1[C@@H]2[C@H]3CC[C@H](C3)[C@@H]2C(=O)N1CCCCN1CCN(c2ncccn2)CC1 [Tandospirone] (20 µM) — recorded growth = 1.06

Entry CN(C)CCCN1c2ccccc2Sc2ccccc21 [Promazine hydrochloride] (20 µM) — recorded growth = 1

Entry COC(=O)C1=C(C)NC(C)=C(C(=O)OCCN2CCN(C(c3ccccc3)c3ccccc3)CC2)C1c1cccc([N+](=O)[O-])c1 (stereo not drawn) [Manidipine Dihydrochloride] (20 µM) — recorded growth = 0.934

Entry COc1cc(OC)c(C(=O)CCCN2CCCC2)c(OC)c1 [Buflomedil hydrochloride] (20 µM) — recorded growth = 0.743

Entry COc1c(N2CCNC(C)C2)c(F)cc2c(=O)c(C(=O)O)cn(C3CC3)c12 (stereo not drawn) [Gatifloxacin] (20 µM) — recorded growth = 0.0125

Entry CC(=O)O[C@]1(C(C)=O)CC[C@H]2[C@@H]3C=C(C)C4=CC(=O)CC[C@]4(C)[C@H]3CC[C@@]21C [Megestrol acetate] (20 µM) — recorded growth = 1.07

Entry CCN(CC)CCOCCOC(=O)C1(c2ccccc2)CCCC1 [Carbetapentane citrate] (20 µM) — recorded growth = 0.743

Entry CCOC(=O)[C@H](CCc1ccccc1)N[C@@H](C)C(=O)N1[C@H](C(=O)O)C[C@H]2CCCC[C@@H]21 [Trandolapril] (20 µM) — recorded growth = 1.01

Entry CC[C@H]1OC(=O)C[C@@H](O)[C@H](C)[C@@H](O[C@@H]2O[C@H](C)[C@@H](O[C@H]3C[C@@](C)(O)[C@@H](O)[C@H](C)O3)[C@H](N(C)C)[C@H]2O)[C@@H](CC=O)C[C@@H](C)C(=O)/C=C/C(C)=C/[C@@H]1CO[C@@H]1O[C@H](C)[C@@H](O)[C@@H](OC)[C@H]1OC [Tylosin] (20 µM) — recorded growth = 0.0976

Entry CC(=O)OCC(=O)[C@@]1(O)CC[C@H]2[C@@H]3CCC4=CC(=O)CC[C@]4(C)[C@H]3[C@@H](O)C[C@@]21C [Cortisol acetate] (20 µM) — recorded growth = 1

Entry COc1c2occc2c(OC)c2c(=O)cc(C)oc12 [Khellin] (20 µM) — recorded growth = 1.11

Entry CC1CC(OC(=O)c2ccccc2O)CC(C)(C)C1 (stereo not drawn) [Homosalate] (20 µM) — recorded growth = 1.1

###

- Tested on: Clostridium sporogenes DSM 1664
- ASSAY_SUMMARY: growth (OD595) fold change vs plate DMSO controls (fold change (ratio)); higher = more growth
- PARTICULARS: incubation time: 27 h, anaerobic, 37 °C
Where a name gives a salt, the structure may show the parent alone.
Give measured growth for each item. Keep answers brief.
Number only, no unit.

Entry CCC[C@@H]1C[C@@H](C(=O)N[C@@H]([C@H]2O[C@H](SC)[C@H](OP(=O)(O)O)[C@@H](O)[C@H]2O)[C@H](C)Cl)N(C)C1 [Clindamycin Phosphate] (20 µM) — recorded growth = 0.836

Entry CC[C@H]1OC(=O)[C@H](C)[C@@H](O[C@H]2C[C@@](C)(OC)[C@@H](O)[C@H](C)O2)[C@H](C)[C@@H](O[C@@H]2O[C@H](C)C[C@H](N(C)C)[C@H]2O)[C@](C)(OC)C[C@@H](C)C(=O)[C@H](C)[C@@H](O)[C@]1(C)O [Clarithromycin] (20 µM) — recorded growth = 0

Entry C[C@@H](CN1CC(=O)NC(=O)C1)N1CC(=O)NC(=O)C1 [Dexrazoxane hydrochloride] (20 µM) — recorded growth = 1.26

Entry C[C@H](N)[C@H](O)c1cccc(O)c1 [Metaraminol bitartrate] (20 µM) — recorded growth = 1.04

Entry CC(=O)NC[C@H]1CN(c2ccc(N3CCOCC3)c(F)c2)C(=O)O1 [Linezolid] (20 µM) — recorded growth = 0

Entry Cc1ccc(S(=O)(=O)NC(=O)NN2CC3CCCC3C2)cc1 (stereo not given) [Gliclazide] (20 µM) — recorded growth = 1.15

Entry N=C(N)N/N=C/c1c(Cl)cccc1Cl [Guanabenz acetate] (20 µM) — recorded growth = 0.918

Entry O=C1NCCN1CCN1CCC(c2cn(-c3ccc(F)cc3)c3ccc(Cl)cc23)CC1 [Sertindole] (20 µM) — recorded growth = 0.981

Entry O=C(O)/C=C/c1ccc(Cn2ccnc2)cc1 [Ozagrel hydrochloride] (20 µM) — recorded growth = 0.923

Entry CCCN(CCC)S(=O)(=O)c1ccc(C(=O)O)cc1 [Probenecid] (20 µM) — recorded growth = 1.04

Entry Cc1c(N(C)C)c(=O)n(-c2ccccc2)n1C [Amidopyrine] (20 µM) — recorded growth = 0.923

Entry CCOC(=O)CC(=O)N1CCSC1COc1ccccc1OC (stereo not given) [Moguisteine] (20 µM) — recorded growth = 0.961

Entry COc1cc(OC)c(C(=O)CCCN2CCCC2)c(OC)c1 [Buflomedil hydrochloride] (20 µM) — recorded growth = 1.11

Entry CC(=O)N(CC(C)C(=O)O)c1c(I)cc(I)c(N)c1I (stereo not given) [Iocetamic acid] (20 µM) — recorded growth = 0.863

Entry C#C[C@]1(O)CC[C@H]2[C@@H]3CCC4=Cc5oncc5C[C@]4(C)[C@H]3CC[C@@]21C [Danazol] (20 µM) — recorded growth = 0.903

Entry CCOC(=O)C1=C[C@]2(CC)CCCN3CCc4c(n1c1ccccc41)[C@@H]32 [Vinpocetine] (20 µM) — recorded growth = 0.883

Entry CC[N+](C)(CC)CCOC(=O)C1c2ccccc2Oc2ccccc21 [Methantheline bromide] (20 µM) — recorded growth = 0.956

Entry CCOC(=O)c1ccc(N)cc1 [Benzocaine] (20 µM) — recorded growth = 1.09

Entry Clc1cc(Cl)c(OCC#CI)cc1Cl [Haloprogin] (20 µM) — recorded growth = 0.986

Entry O=C1CC2(CCCC2)CC(=O)N1CCCCN1CCN(c2ncccn2)CC1 [Buspirone hydrochloride] (20 µM) — recorded growth = 0.958

Entry COc1c(Cl)ccc(Cl)c1C(=O)O (20 µM) — recorded growth = 1.05

Entry CC(=O)SCC(Cc1ccccc1)C(=O)NCC(=O)OCc1ccccc1 (stereo not given) [Racecadotril] (20 µM) — recorded growth = 1.06

Entry NC[C@H]1O[C@H](O[C@H]2[C@H](O[C@@H]3O[C@H](CO)[C@@H](O)[C@H]3O)[C@@H](O)[C@H](N)C[C@@H]2N)[C@H](N)[C@@H](O)[C@@H]1O [Ribostamycin sulfate salt] (20 µM) — recorded growth = 1.07

Entry COCCCOc1ccnc(C[S+]([O-])c2nc3ccccc3[nH]2)c1C (stereo not given) [Rabeprazole sodium salt] (20 µM) — recorded growth = 1.24

Entry OCCN1C[C@H](O)[C@@H](O)[C@H](O)[C@H]1CO [Miglitol] (20 µM) — recorded growth = 1.09

Entry N[C@@H](C(=O)N[C@@H]1C(=O)N2C(C(=O)O)=C(Cl)CC[C@H]12)c1ccccc1 [Loracarbef] (20 µM) — recorded growth = 0

Entry CC(=O)OC(C)OC(=O)C(C)c1ccc(-c2ccccc2)c(F)c1 (stereo not given) [Flurbiprofen axetil] (20 µM) — recorded growth = 1.11

Entry CO/N=C(\C(=O)N[C@@H]1C(=O)N2C(C(=O)[O-])=C(C[n+]3ccn4ncccc43)CS[C@H]12)c1nsc(N)n1 [Cefozopran hydrochloride] (20 µM) — recorded growth = 0

Entry COc1cc2ncnc(Nc3ccc(F)c(Cl)c3)c2cc1OCCCN1CCOCC1 [Gefitinib] (20 µM) — recorded growth = 1.1

Entry CCC(C)(C)c1ccc(CC(C)CN2C[C@@H](C)O[C@@H](C)C2)cc1 (stereo not given in full) [Amorolfine hydrochloride] (20 µM) — recorded growth = 1.07

###

- System: Klebsiella aerogenes DSM 30053
- ASSAY_SUMMARY: fold change of Cadaverine concentration vs plate DMSO controls (fold change (ratio)); higher = more amine produced, active = hit call of the paper (significant change in both replicates, either direction)
- PARTICULARS: incubation time: 27 h, anaerobic, 37 °C
Where a name gives a salt, the structure may show the parent alone.
MEASURED_PROPERTY: fold change of Cadaverine concentration
Number only, no unit.

Entry O=C(Cn1cnnn1)N[C@@H]1C(=O)N2C(C(=O)O)=C(CSc3nncs3)CS[C@H]12 [Ceftezole] (20 µM) — recorded fold change of Cadaverine concentration = 1.04

Entry O=C(O)CCC(=O)c1ccc(-c2ccccc2)cc1 [Fenbufen] (20 µM) — recorded fold change of Cadaverine concentration = 0.998

Entry CCN(CC)C(=O)c1ccc(O)c(OC)c1 [Ethamivan] (20 µM) — recorded fold change of Cadaverine concentration = 1.01

Entry C[N+](C)(CCOc1ccccc1)Cc1ccccc1.O=C([O-])c1cc2ccccc2cc1O [Bephenium hydroxynaphthoate] (20 µM) — recorded fold change of Cadaverine concentration = 0.992

Entry Cc1cc(NC(=O)C2=C(O)c3ccccc3S(=O)(=O)N2C)no1 [Isoxicam] (20 µM) — recorded fold change of Cadaverine concentration = 0.994

Entry CC(C)Cc1ccc([C@H](C)C(=O)O)cc1 [(S,+) Ibuprofen] (20 µM) — recorded fold change of Cadaverine concentration = 1.04

Entry CN1CCN(C(c2ccccc2)c2ccc(Cl)cc2)CC1 (stereo not drawn) [Chlorcyclizine hydrochloride] (20 µM) — recorded fold change of Cadaverine concentration = 0.981

Entry Oc1ncnc2[nH]ncc12 [Allopurinol] (20 µM) — recorded fold change of Cadaverine concentration = 1.01
